readoutKind: melting point

Give the value of melting point reported for the following: `O=C(Nc1ccc(Oc2ccccc2)cc1)N1CCN(c2ncnc3cc(OCc4ccccc4)c(OCc4ccccc4)cc23)CC1`
137 to 138 °C

Give the value of melting point reported for the following: `O=C(Nc1ccc(Oc2ccccc2)cc1)N1CCN(c2ncnc3ccccc23)CC1`
74 to 75 °C

Give the value of melting point reported for the following: `COc1cc2ncnc(N3CCN(C(=O)Nc4ccc(C)cc4)CC3)c2cc1OC`
225 to 228 °C

Give the value of melting point reported for the following: `COc1cc2ncnc(N3CCN(C(=S)Nc4ccc([N+](=O)[O-])cc4)CC3)c2cc1OC`
221 to 224 °C

Give the value of melting point reported for the following: `COc1cc2ccnc(N3CCN(C(=O)Nc4ccc([N+](=O)[O-])cc4)CC3)c2cc1OC`
247 to 248 °C

Give the value of melting point reported for the following: `COc1cc2ncnc(N3CCN(C(=O)Nc4ccc(Cl)c(C(F)(F)F)c4)CC3)c2cc1OC`
237 to 238 °C

Give the value of melting point reported for the following: `S=C(NCc1cccnc1)N1CCN(c2ncnc3cc4ccccc4cc23)CC1`
107 to 110 °C

Give the value of melting point reported for the following: `COc1cc2ncnc(N3CCN(C(=S)NCCCc4ccccc4)CC3)c2cc1OC`
147 to 148 °C

Give the value of melting point reported for the following: `O=C(Nc1ccc(Oc2ccccc2)cc1)N1CCN(c2ccnc3c(Cl)cccc23)CC1`
174 to 175 °C

Give the value of melting point reported for the following: `COc1cc2ncnc(N3CCN(C(=S)NCc4ccccc4)CC3)c2cc1OS(C)(=O)=O`
76 to 80 °C

Give the value of melting point reported for the following: `COc1cc2ncnc(N3CCN(C(=S)N[C@H](C)c4ccccc4)CC3)c2cc1OC`
99 to 101 °C

Give the value of melting point reported for the following: `Cl.Cl.S=C(NCc1cccnc1)N1CCN(c2ccnc3ccccc23)CC1`
183 to 185 °C

Give the value of melting point reported for the following: `COc1cc2ncnc(N3CCN(C(=S)NCc4ncc(C(F)(F)F)cc4Cl)CC3)c2cc1OC`
182 to 183 °C

Give the value of melting point reported for the following: `COc1ccc2c(N3CCN(C(=O)Nc4ccc(Oc5ccccc5)cc4)CC3)ncnc2c1OC`
189 to 190 °C

Give the value of melting point reported for the following: `COc1cc2c(N3CCN(C(=O)Nc4ccc([N+](=O)[O-])cc4)CC3)ncnc2c(OC)c1OC`
197 to 199 °C

Give the value of melting point reported for the following: `COc1cc2ncnc(N3CCN(C(=O)Nc4ccc(Br)cc4)CC3)c2cc1OC`
223 to 228 °C

Give the value of melting point reported for the following: `COc1cc2ncnc(N3CCN(C(=O)Nc4ccc(N5CCOCC5)cc4)CC3)c2cc1OC`
254 to 256 °C

Give the value of melting point reported for the following: `COc1cc2ncnc(N3CCCN(C(=O)Nc4ccc(Oc5ccccc5)cc4)CC3)c2cc1OC`
93 to 96 °C

Give the value of melting point reported for the following: `COc1cc2ncnc(N3CCN(C(=O)Nc4ccc(SC)cc4)CC3)c2cc1OC`
231 to 233 °C

Give the value of melting point reported for the following: `COc1cc2ncnc(N3CCN(C(=S)Nc4cccc([N+](=O)[O-])c4)CC3)c2cc1OC`
140 to 143 °C

Give the value of melting point reported for the following: `COc1cc2ncnc(N3CCCN(C(=S)NCc4ccccc4)CC3)c2cc1OC`
86 to 88 °C

Give the value of melting point reported for the following: `COc1cc2ncnc(N3CCN(C(=S)Nc4ccc(C(=O)c5ccccc5)cc4)CC3)c2cc1OC`
222 to 223 °C

Give the value of melting point reported for the following: `S=C(NCc1ccccc1)N1CCN(c2ccnc3ccc(Cl)cc23)CC1`
173 to 174 °C

Give the value of melting point reported for the following: `CCOc1cc2ncnc(N3CCN(C(=O)Nc4ccc([N+](=O)[O-])cc4)CC3)c2cc1OCC`
120 to 121 °C

Give the value of melting point reported for the following: `COc1cc2ncnc(N3CCN(C(=O)Nc4cccc(I)c4)CC3)c2cc1OC`
205 to 208 °C

Give the value of melting point reported for the following: `COc1ccc(CNC(=S)N2CCN(c3ncnc4cc(OC)c(OC)cc34)CC2)cc1`
201 to 204 °C

Give the value of melting point reported for the following: `O=C(Nc1ccc(Oc2ccccc2)cc1)N1CCN(c2ncnc3ccc(F)cc23)CC1`
186 to 187 °C

Give the value of melting point reported for the following: `O=C(Nc1ccc(Oc2ccccc2)cc1)N1CCN(c2ncnc3cc4c(cc23)OCCO4)CC1`
227 to 228 °C

Give the value of melting point reported for the following: `COc1ccc(NC(=S)N2CCN(c3ncnc4cc(OC)c(OC)cc34)CC2)cc1`
196 to 197 °C

Give the value of melting point reported for the following: `O=C(Nc1ccc(Oc2ccccc2)cc1)N1CCN(c2ncnc3ccc(I)cc23)CC1`
184 to 185 °C

Give the value of melting point reported for the following: `COc1cc2ncnc(N3CCN(C(=O)NCCc4ccc(Br)cc4)CC3)c2cc1OC`
174 to 175 °C

Give the value of melting point reported for the following: `CCNc1cc2ncnc(N3CCN(C(=O)Nc4ccc(Oc5ccccc5)cc4)CC3)c2cc1[N+](=O)[O-]`
242 to 244 °C

Give the value of melting point reported for the following: `COc1cc2ncnc(N3CCN(C(=S)Nc4ccc(F)cc4)CC3)c2cc1OC`
212 to 217 °C

This collection of values is drawn from patent US6472391B2.
